Provenance of the data: the nanobody polyreactivity screen of Harvey et al. (2022)

test: yeast display, Sf9 membrane polyspecificity reagent, FACS + sequencing; frameworks hold sequencing errors
value-type: polyreactivity (PSR sort gate)

seq | polyreactivity (PSR sort gate)
QVQLVESGGRLVQARGSLRLSCAASGRIFYDYAMGCYRQAPGKESELVAAISGSGGSTYYADSVKGRFTISRDNAKNTVYLQMNSLKPEDTAVYYCNRYTTRYYPGGDYWGQGTQVTVSS | high polyreactivity
QVQLVESGGGLVQAGGSLRLSCAASGFTFNAYAMGWYRQAPGKERELVAAINVSGGITYYADSVKGRFTISRDNAKNTVYLQMNSLKPEDTAVYYCARDSYYSQVYRRGYSVPWRLDYWGQGTQVTVSS | low polyreactivity
QVQLVESGGGLVQAGGSLRLSCAASGFTFAYNAMGWYRPAPGKERELVAAITTRTGTTYYADSVKGRFTISRDNAKNTVYLQMNSLKPEDTAVYYCAKRGYYRYYYWGQGTLVTVSS | high polyreactivity
QVQLVESGGGLVQAGGSLRLSCAASGSISVSYMGWYRQAPGKERELVAAINWRGGSTYYADSVKGRFTISRDNAKNTVYLQMNSLKPEDTAVYYCAADYTVSYPYYEYYYWGQGTQVNVSS | high polyreactivity
QVQLVESGGGLVQAGGSLRLSCAASGSTFSGYAMGWYRQAPGKERELVAAISWSGGRTYYADSVKGRFTISRDNAKNTVYLQMNSLKPEDTAVYYCAAVRKSAYEYWGQGTQVTVSS | high polyreactivity
QVQLVESGGGLVQAGGSLRLSCAASGRTFRYNAMGWYRQAPGKERELVAAISGRGSSTYYADSVKGRFTISRDNAKNTVYLQMNSLKPEDTAVYYCAADRFRLYVGGWWYDYWGQGTQVTVSS | high polyreactivity
QVQLVESGGGLVQAGGSLRLSCAASGSIFKDNAMGWYRQAPGKERELVAAITSGASTNYADSVKGRFTISRDNAKNTVYLQMNSLKPEDTAVYYCAAVLAGGVYWVVHYDYWGQGTQVTVSS | low polyreactivity
QVQLVESGGGLVQAGGSLRFSCAASGLIFRGYVMGWYRQAPGKERELVAAISRRGVNTYYADSVKGRFTISRDNAKNTVYLQMNSLKPEDTAVYYCAAETHVGWPAKFDYWGQGTRVTVSS | high polyreactivity

Request: Which polyreactivity (PSR sort gate) reading was recorded for the sequence QVQLVESGGGLVQAGGSLRLSCAACGITFTSNAMGWYRQAPGKERELVASISWSDDNTHYADSVKGRFTISRDNAKYTVYLQMNSLKPEDTAVYYCAADGTHPRPGTYKFDYWGQGTQVTVSS ?
Result: low polyreactivity

====

experiment: yeast display, Sf9 membrane polyspecificity reagent, FACS + sequencing; frameworks hold sequencing errors
value-type: polyreactivity (PSR sort gate)

seq | value-type | result
QVQLVESGGGLVQAGGSLRLSCAASGSIFKTYAMGWYRQAPGKERELVAAITSGVSTNYADSVKGRFTISRDNAKNTVYLQMNSLKPEDTAVYYCNVDTSSPSRRDYDYWGQGTQVTVSS | polyreactivity (PSR sort gate) | low polyreactivity
QVQLVESGGGLVQAGGSLRLSCAASGRIFTYNTMGWYRQAPGKERELVAAIRTGGSTNYADSVKGRFTISRDNAKNTVYLQMNSLKPEDTAVYYCNTVRHSSSVYWYDYWGQGTQVTVSS | polyreactivity (PSR sort gate) | low polyreactivity
QVQLVESGGGLVQAGGSLRLSCAASGSIFAVYAMGWYRQAPGKERELVAAISSRGSSTYYADSVKGRFTISRDNAKNTVYLQMNSLIPEDTEVYYCAARPGIRSYPPGYGYWGQGTQVTVSS | polyreactivity (PSR sort gate) | low polyreactivity

====

assay: yeast display, Sf9 membrane polyspecificity reagent, FACS + sequencing; frameworks hold sequencing errors
value-type: polyreactivity (PSR sort gate)

Consider the worked cases shown below.
seq | result
QVQLVESGGGLVQAGGSLRISCAASGSTFYYNAMGWYRQAPGKERELVAAISYSGGRTYYADSLTGRFTISRDNAKNTVYLQMNSLKPEDTAVYYCATGQPILALRYAYGYWGQGTQVTVSS | low polyreactivity
QVQLVEAGGGLVQAGGSLRLSCAASGYIFAYYAMGWYRQAPGKERELVATIRSGGSTNYADSVKGRFTISRDNGKNTVYLQMNSLKPEDTAVYYCARDDATAGDYWGQGTQVTVSS | low polyreactivity
QVQLQDSVGCLVQAGGSLRLSCAASGSISIYGYMGWYRQAPGNERELVAAITAGGSTYYADSVKGRFTISRDNAKNTVYLLMKSLKPEDTAVYYCAPYEQRVYDLHYWGQGTQVTVSS | high polyreactivity
QVQLVESGGGLVQAGGSLRLSCAASGSNISDNEMGWYRPAPGKESELVAAINWGGTNTYYADSVKGRYTISRDNAKNTVYLQINRLKPEDTAVYYCNADIPRRPIRHYLYDYWGQGTQVTVSS | low polyreactivity
QVQLVESGGGLVQAGGSLRLSCAASGFTFRSYAMGWYRQAPGKEREFVAAINGRSGSTYADSVKGRFTISRDNAKNTVYLQMTSLKPEDTAVYYCAARVRRGSTQAQYYYWGQGTQVTVSS | high polyreactivity

Request: What value of polyreactivity (PSR sort gate) has been reported for the following sequence? QVQLVESGGGLVQAGGSLRLSCAASGFTFKRYAMGWYRQAPGKEREFVAAITRGGGSTYYTDSVKGRFTISRDNAKNTVYLQMNSLKPEYTAVYYCAAVLYYYWRGYGPRSNRYDYWGQGTQVTVSS
Result: high polyreactivity

Request: Request the reported polyreactivity (PSR sort gate) associated with QVQLVESGGGLVQAGGSLRLSCAASGGIFGYNAMGWYRQAPGKERELVAAISRGTTTNYADSVKGRFTISRDNAKNTVYLQMNSLKPEDTAVYYCAADQPSKRYYYWGQGTQVTVSS
Result: low polyreactivity

Request: For the sequence shown here, QVHLVESGAGLVQAGGSLRLSCAASGSVFPVNAMGWYRQAPGKERELVAAISGSSGSTYYADSVKGRFTISRDNAKNTVYLQMNSLKPEDTAVYYCAKRGYGYGDGAYYYWGQGTQVTVSS , give the reported polyreactivity (PSR sort gate).
Result: low polyreactivity

Request: Requested read-out: polyreactivity (PSR sort gate). Entry: QVQLVESGGGLVQAGGSIRLSCAASGITFRPNAMGWYRQAPGKERELVAAISSGDGTYADSVKGRFTISRDNAKNTVYLQMNSLKPEDTAVYYCNATGQSYVTSEYDYWGQGTQVTVSS
Result: low polyreactivity

Request: Fill blank: measured polyreactivity (PSR sort gate) of the sequence QVQLVESGGGLVQAGGSLRLSCAASGSTLPAYTMAWYRQAPGKERELVAAISYRGGSTYYADSVKGRFTISRDNAKNTVYLQMNSLKPEDTAVYYCAAVYSVAYASTHYRIYDYWGQGTQVTVSS is ____.
Result: high polyreactivity

Request: Quick one: polyreactivity (PSR sort gate) for QVQLVESAGGLVQAGGSLRLSCAASGFTFTYYVMGWYRQAPGKERELVAAISSGGSTYYADSVKGRFTISRDNAKNTVYLQMNSLKPEDTAVYYCAKGSGYYYRYGYWGQGTQVTVSS ?
Result: high polyreactivity

====

experiment: yeast display, Sf9 membrane polyspecificity reagent, FACS + sequencing; frameworks hold sequencing errors

seq | polyreactivity (PSR sort gate)
QVQLVESGGGLVQAGGSLRLSCAASGSIFSYYAMGWYRQAPGKERELVAAITSGGATTYYADSVKGRFTISRDNAKNTVYLQMNSLKPEDTAVYYCAAGYYVYYRWWELDYWGQGTQVTVSS | low polyreactivity
QVQLVESGGGLVQAGGSLRLSCAASGSIITHNTMGWYRQAPGKERELVDSIDSGASTNYADSVKGGFTISRDNAKNTVYLQMNSVKPEDTAVYYCAADVAKFRYRDDYWGQGTQVTVAS | low polyreactivity
QVQLVESGGGLVQAGGSLRLSCAASGITFPDYAMGWYRQAPGKERELVATISSSGGNTYYADSVKGRFTISRDNAKNTVYLQMNSLKPEDTAVYYCATVSYYWGYDYWGQGTQVTVSS | low polyreactivity

====

test: yeast display, Sf9 membrane polyspecificity reagent, FACS + sequencing; frameworks hold sequencing errors
value-type: polyreactivity (PSR sort gate)

Some solved entries appear below for comparison.
seq | polyreactivity (PSR sort gate)
QVQLVESGGGLVQAGGSLRLSCAASGRIFDYYAMGWYRQAPGKERELVAAINRGGNTYYADSVKGRFTISRDNAKNTVYLQMNSLKPEETSVYYCNAQWYYLRYRYDYWGQGTQVTVSS | high polyreactivity
QVQLVESGGGLVQAGGSLRLSCAASGSIFAKNAMGWYRQAPGKERELVAAISSSGGRTYYADSVKGRFTISRDNAKNTVYLQMNSLKPEDTAVYYCAADLRYIYWSYYYWGQGTQVTVSS | low polyreactivity
KVQLVESGGGLVQAGGSLRLSCAATGRIFRPKAMGCYIQAPGKEREMVAAIRSTVGSTFYEYSVKGRFSISRDNAKNTVYLEMNRLKREDTAVYYCAGGTSRQFYYWGQGTQVTVSS | low polyreactivity
QVQLVESGGGLVQAGGSLRLSCAASGRIFYYNAKGWYRQAPGKERELVATISRGGSTYYADSVKGRFTISRDNAKNTVDLQMNSLKPEDTAVYYCATRVLYYQSSYDYWGQGTQVTVSS | high polyreactivity
QVQLVESGGGLVQAGASLRLSCSASGRTFLNYTMGWSRHAPGTERELVAAIRYRDGSTYYADSVKGRFTISRDNAKNTVYLQMNSLKPVDTAVYYCNTRITQVGDYIYDYWGQGTQVTVSS | low polyreactivity
QVQLVESGGGLVQAGGSLRLSCAASGSIFAGYAMGWYRQAPGKERELVAAISWSGGGTYYADSVKGRFTISRDNAKNTVYLQMNSLKPEDTAVYYCNAYGYRHRGNGYWGQGTQVTVSS | high polyreactivity
QVQIVESGGGLVQAGGSLRLSCAPSGSNIDYNDMGRYRQAPGKEWELVAAISGRGTRTYYADSVKGRFTISRDNAKNTVYLQMNSLKPEDTAVYYCAASTRGRYWGRFGYWGQRTQVTVSS | high polyreactivity
QVQLVESRGGLVQAGGSLRLSCAASGSTFDGNAMGWYRQAPGKERELVAAISIGGSTSYADSVKGRFTISRDNAKNTVYLQMNSLNPEDTAVYYCAADRYRTFYQWKRYRYDYWGQGTQVTVSS | high polyreactivity

Request: # polyreactivity (PSR sort gate) lookup, item QVQLVDSGGGLVQAGGSLRVSCAASGRIFSGHAMGWYRQAPGKVRELVAAITSGGDDTYYADSVKGRFTISRDNAKNTVYLQMNSLKPEDTAVYYCAARYLGYTYYYWGQGTQVSVSS
Result: low polyreactivity

Request: Quick one: polyreactivity (PSR sort gate) for QLQLVESGGGLVQAGGSLRLSCAASGFTFYLYVLGWYRQAPGKEREFVAAITGSGTSTYYADSVKGRFTISRDNAKNTVYLQMNSLKPEDTAVYYCNAKRDRYFYTVKYDYWGQGTQVTVSS ?
Result: low polyreactivity

Request: Reported polyreactivity (PSR sort gate) for QVHLVDSGGGLVQAGGSLRLSCAASGRIYYVYAMGGYRQAPGQERELVAGITSTGGSTYYADSVKGRFTISRDNAKSTVYLQINRLNPVDTAVYYGATDYGYYDYWGQGTQVTVSS : what is it?
Result: low polyreactivity
